meta.source: the RNAGym collection of RNA variant scans (doi:10.7554/elife.90254)

B1: OR4K15 (parent)
chain: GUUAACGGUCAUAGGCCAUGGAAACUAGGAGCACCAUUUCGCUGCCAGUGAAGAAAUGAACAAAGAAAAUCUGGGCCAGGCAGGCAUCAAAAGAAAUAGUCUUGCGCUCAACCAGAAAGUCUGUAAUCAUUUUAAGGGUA

variants of: B1; assay: self-cleavage, relative activity (ratio to wild type); higher = more cleavage; in vitro, sequencing; the parent is a self-cleaving ribozyme
Recorded self-cleavage by entry
metric: self-cleavage

> print(dat)
    mutation.notation         metric  obs.value
 1         A30G A116C  self-cleavage       0.03
 2           U2C G53A  self-cleavage       1.18
 3         A54G A110G  self-cleavage       0.21
 4           U9C A36G  self-cleavage       0.96
 5          A13G A94U  self-cleavage        1.4
 6          U72A A98U  self-cleavage       0.33
 7         A59G A135U  self-cleavage       1.55
 8          A4G G138A  self-cleavage       0.99
 9         G31A C105U  self-cleavage       0.25
10          U37C A59U  self-cleavage       1.91
11          U43A U70G  self-cleavage       1.12
